The reader will find reported Emax values listed item by item below.
molecular target: human κ opioid receptor (Homo sapiens, UniProt P41145); assay: κ-opioid receptor [35S]GTPγS functional assay, HEK-293 or CHO cells; type: biochemical; parameters: expressed in transfected cells; conditions: HEK-293 or CHO cells; relative to U69,593
Sequence (P41145 whole entry): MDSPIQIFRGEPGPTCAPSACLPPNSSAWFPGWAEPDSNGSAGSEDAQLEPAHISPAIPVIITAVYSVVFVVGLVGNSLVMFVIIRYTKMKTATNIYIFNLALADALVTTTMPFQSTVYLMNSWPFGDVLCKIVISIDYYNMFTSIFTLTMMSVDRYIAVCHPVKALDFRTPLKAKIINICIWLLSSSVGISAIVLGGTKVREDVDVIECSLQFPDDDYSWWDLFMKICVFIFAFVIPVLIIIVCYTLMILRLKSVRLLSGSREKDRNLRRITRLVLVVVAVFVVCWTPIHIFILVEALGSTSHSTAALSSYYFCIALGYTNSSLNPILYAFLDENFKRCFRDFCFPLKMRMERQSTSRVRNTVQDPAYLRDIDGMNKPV
Write it as a number; the unit % goes unstated.

CC(C)C(=O)N[C@H]1C[C@@]2(O)[C@H]3Cc4ccc(O)cc4[C@@]2(CCN3CC2CC2)CC1O (stereo partly shown) : 45.7
CCC(=O)N[C@H]1C[C@@]2(O)[C@H]3Cc4ccc(O)cc4[C@@]2(CCN3CC2CC2)C[C@@H]1O : 37.2
CC(=O)N[C@H]1C[C@@]2(O)[C@H]3Cc4ccc(O)cc4[C@@]2(CCN3CC2CC2)C[C@H]1O : 13.3
COc1ccc2c(c1)[C@]13CCN(CC4CC4)[C@H](C2)[C@]1(O)CC[C@H](O)C3 : 55.8
CCC(=O)N[C@H]1C[C@@]2(O)[C@H]3Cc4ccc(O)cc4[C@@]2(CCN3CC2CC2)C[C@H]1O : 53
CC(C)CN[C@@H]1C[C@@]2(O)[C@H]3Cc4ccc(O)cc4[C@@]2(CCN3CC2CC2)C[C@@H]1O : 32

We now examine a further molecule.
Ask | For CC(C)CCCC(=O)N[C@H]1C[C@@]2(O)[C@H]3Cc4ccc(O)cc4[C@@]2(CCN3CC2CC2)CC1O (stereo partly shown) , write its Emax.
Reply | 21.2
